Every entry's value here was drawn from paper PMC12040169.

# Test details: in vitro
# Condition context: human, hela cells, % viability
So basically: is viability at 28.5 h, 10 µM under 90%? Then fulfilled. Not under? Then not fulfilled.

> print(dat)
                                   molecule  qualitative.label
1          Cc1nnc(N2CCN(Cc3sccc3Cl)CC2)nc1C      not fulfilled
2        O=C(c1ccc(F)cc1)N1CCN(c2ccccn2)CC1      not fulfilled
3           CCNC(=O)CNc1cc(C#N)ccc1C(F)(F)F          fulfilled
4  O=C1CC2CC3CC2C(Sc2ccccc2)C3O1 (stereo not shown)      not fulfilled
5  Cc1nn(C)c(Cl)c1S(=O)(=O)Nc1ccc2cc(Br)cnc2n1          fulfilled
6  CS(=O)(=O)N1CC2(CCN(CCOCc3ccccc3)CC2)c2ccccc21 [CBK115458T]      not fulfilled
7  Cc1cc(C(=O)N2CCN(Cc3ccc4c(c3)OCO4)CC2)nn1C      not fulfilled
8              CN(C)CCNc1ncnc2sc3c(c12)CCC3          fulfilled

----------
# Test details: in vitro
# Condition context: human, hela cells, % viability
viability at 28.5 h, 10 µM for assorted compounds
Property name: viability at 28.5 h, 10 µM (%)

> print(dat)
                                   compound               property.name  readout.number
1  CC(C)c1noc(C(C)N2CCN(Cc3noc(C(C)(C)C)n3)CC2)n1 (centres unmarked)  viability at 28.5 h, 10 µM            84.4
2  CC(Cn1cccn1)NCC(=O)N(C)C1(C#N)CCCCC1 (centres unmarked)  viability at 28.5 h, 10 µM            91.5
3  O=C(C1=C(O)C(=O)N(CCCn2ccnc2)C1c1ccncc1)c1cccs1 (centres unmarked)  viability at 28.5 h, 10 µM             106
4  CCOC(=O)N1CCN(CCC(=O)Nc2ccc3c(c2)CCC3)CC1  viability at 28.5 h, 10 µM             111
5    Cc1nc(C2CCN(C(=O)c3cccnc3)CC2)c2sccn12  viability at 28.5 h, 10 µM             106

----------
# Test details: in vitro
# Condition context: human, hela cells, % viability
Item-by-item account of viability at 28.5 h, 10 µM
Property name: viability at 28.5 h, 10 µM (%)

> print(dat)
                                    molecule  readout.number
 1  Cn1nccc1C(=O)N1CCCC(c2cc3cccnc3[nH]2)C1 (centres unmarked)            92.7
 2  COc1ccc(C(=O)Nc2ccccc2C(=O)Nc2cccc([N+](=O)[O-])c2)cc1             101
 3  O=C(Nc1ccc(Cl)cc1)c1ccc(N2CCN(Cc3ccccc3)CC2)c([N+](=O)[O-])c1             103
 4        O=c1cc(C(F)F)c2cn(C3CCCC3)nc2[nH]1            91.8
 5  O=C(Cc1ccsc1)N1CCC[C@@H]1Cn1c(=O)oc2ccccc21            91.2
 6  Cc1oc2ccc(O)cc2c1C(=O)NCCCN1CC(C)CC(C)C1 (centres unmarked)             110
 7                     C/C(=N\NC(N)=S)C(=O)O             102
 8  COc1ccc(-n2nc3ccc(NC(=O)c4sc5ccccc5c4Cl)cc3n2)cc1Cl            94.5
 9  COc1cccc(N2CC(C(=O)Nc3cccc(C(=O)O)c3)CC2=O)c1 (centres unmarked)            99.7
10      Cc1cccc(OCCn2c(CCNC=O)nc3ccccc32)c1C             104
11  Oc1ccc2ccccc2c1/C=N/c1ccc(-c2cc(-c3ccc(/N=C/c4c(O)ccc5ccccc45)cc3)ncn2)cc1             104
12           c1csc(-c2cncc(NCCc3ccncc3)n2)c1             105
13  Cc1nn(Cc2c(F)cccc2Cl)c(C)c1NC(=O)CCCC(=O)O             108
14  CCN(CC(=O)Nc1ccc2c(c1)OCCO2)S(=O)(=O)c1ccsc1C(=O)O            95.5
15      COc1ccc(NC(=O)N(CCO)C2CCCCC2)c(OC)c1            90.9
16  Cc1ccc(NC(=O)COc2ccc(/C=C\c3onc(C)c3[N+](=O)[O-])cc2)cc1            88.2
17   O=c1cc(N2CCOCC2)oc2ccccc12 [CBK008244G]            71.5
18  CCOC(=O)c1ccc(NC(=O)C(C)Sc2nc3ccccc3[nH]2)cc1 (centres unmarked)            91.8
19  CN1CCN(Cc2n[nH]c(=S)n2-c2cccc(C#N)c2)CC1             112
20  CCN(C(=O)c1ccc(=O)[nH]c1)C(CC1CCCCC1)c1ccccc1 (centres unmarked)            91.1
21  O=C(NCCCN1CCOCC1)c1cc(Cl)ccc1[N+](=O)[O-]             108
22             Cc1cc(S(=O)(=O)NCC(=O)O)ccc1F             112
23  Cc1cccc(C)c1OCc1nnc(SCC(=O)c2ccc(F)cc2)n1C            91.2
24  O=C(O)C1Cc2c([nH]c3ccccc23)C(c2ccc(Cl)cc2Cl)N1 (centres unmarked)            88.5
25              COC(=O)CNC(=O)c1nc(SC)ncc1Cl             107
26  CN(C)CC(O)CN1C(=O)NC(C)(C)C1=O (centres unmarked)             114
27  O=C(Nc1ccc2n(c1=O)C[C@H]1C[C@@H]2CN(C(=O)NC2CCCCC2)C1)c1cnccn1            86.8
28  COCCn1cnnc1C(C)NC(=O)N(C)Cc1nc2ccccc2s1 (centres unmarked)            88.2
29   O=c1[nH]c2ncc(-c3cccnc3)nc2n1CCN1CCOCC1             103
30  COCCNC(=O)c1cc(-c2cc(C)oc2C)nc2c1cnn2C(C)C             101
31  N#C/C(=C\C=C\c1ccc([N+](=O)[O-])cc1)c1nc(-c2cc3cc([N+](=O)[O-])ccc3oc2=O)cs1            93.7
32  NC(=O)CN1C(=O)[C@@H]2CCCN2C(=O)c2ccccc21             110
33  N#Cc1ccc(C(=O)Nc2ccc(N3CCNCC3)nc2)cc1 [CBK029435T]            95.2
34    Cc1ccc(S(=O)(=O)NC(C)(C)CSc2nncn2C)cc1             104
35  COC(=O)c1c(NC(=O)Cn2ccc([N+](=O)[O-])n2)sc2c1CCCC2             116
36  COCOc1ccc(-c2nccnc2OCCN2C(=O)c3ccccc3C2=O)cc1             111
37  COc1ccccc1C1NC(=O)COC12CCN(Cc1ccccc1)CC2 (centres unmarked)             109
38  CCCCN(C(=O)CC1SC(NC2CCCCCC2)=NC1=O)c1ccccc1 (centres unmarked)            92.4
